# TARGET UNDER TEST: T1, CRBN, Q96SW2;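 also: pooled lentiviral library of zinc finger degron-EGFP fusions in mCherry-positive Jurkat cells, FACS-sorted after compound exposure, with degron abundance counted by next-generation sequencing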
# T1 chain: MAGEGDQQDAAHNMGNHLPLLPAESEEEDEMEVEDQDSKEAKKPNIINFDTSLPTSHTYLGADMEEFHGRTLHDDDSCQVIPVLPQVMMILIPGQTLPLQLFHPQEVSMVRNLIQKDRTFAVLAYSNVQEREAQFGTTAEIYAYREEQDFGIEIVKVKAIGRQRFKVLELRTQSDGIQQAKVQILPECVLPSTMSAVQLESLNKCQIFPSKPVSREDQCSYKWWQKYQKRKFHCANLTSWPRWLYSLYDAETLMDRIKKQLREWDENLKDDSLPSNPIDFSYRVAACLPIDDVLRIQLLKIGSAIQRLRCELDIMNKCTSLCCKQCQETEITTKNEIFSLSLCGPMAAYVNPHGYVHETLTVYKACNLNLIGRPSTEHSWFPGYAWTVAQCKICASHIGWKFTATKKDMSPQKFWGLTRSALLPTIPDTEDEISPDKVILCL
# TEST METHOD NOTES: log2 fold change of degron read counts, EGFP-low vs EGFP+ sorted cells (limma voom), compound-induced degradation; higher = more compound-induced degradation of the degron-EGFP fusion; degrons are variants of IKZF1/3 zinc finger 2; compound dose not given here
# STATED CONDITIONS: Jurkat; 18 h; compound: thalidomide
Whole data set: some 8,300 sequences, median “log2 fold change of degron read counts, EGFP-low vs EGFP+ sorted cells (limma voom), compound-induced degradation” near -1.1, cut for the highest 2% near 3.2. What follows is part of a selection rich in the highest values, with near analogues and random picks from the rest.
Parameter log2 fold change of degron read counts: see the listing below.
PARAMETER: log2 fold change of degron read counts

- FECEICGADFTQKGNLLRHIKL [46F_47E_49E_50I_52G_53A_54D_55F_67L_, Q9UKT9]: 0.225
- FICEICGAYFTQKGNLLRHIKL [46F_47I_49E_50I_52G_53A_54Y_55F_67L_, Q9UKT9]: 2.12
- FGCEICGATFTQKGNLLRHIKL [46F_47G_49E_50I_52G_53A_54T_55F_67L_, Q9UKT9]: 1.11
- FCCPICGANFTQKGNLLRHIKL [46F_47C_49P_50I_52G_53A_54N_55F_67L_, Q9UKT9]: 2.22
- LDCEICGFNCTQKGNLLRHIKL [46L_47D_49E_50I_52G_53F_54N_55C_67L_, Q9UKT9]: -1.74
- FICNQCGHNFTQKGNLLRHIKL [46F_47I_49N_50Q_52G_53H_54N_55F_67L_, Q9UKT9]: -2.3
- FICDQCGARFTQKGNLLRHIKL [46F_47I_49D_50Q_52G_53A_54R_55F_67L_, Q9UKT9]: -1.23
- FACPVCGAVFTQKGNLLRHIKL [46F_47A_49P_50V_52G_53A_54V_55F_67L_, Q9UKT9]: 0.502
- FYCEICGAYFTQKGNLLRHIKL [46F_47Y_49E_50I_52G_53A_54Y_55F_67L_, Q9UKT9]: 0.307
- FCCEQCGAMFTQKGNLLRHIKL [46F_47C_49E_50Q_52G_53A_54M_55F_67L_, Q9UKT9]: -1.41
- FMCEQCGATFTQKGNLLRHIKL [46F_47M_49E_50Q_52G_53A_54T_55F_67L_, Q9UKT9]: -1.3
- FQCEICGAIFTQKGNLLRHIKL [46F_47Q_49E_50I_52G_53A_54I_55F_67L_, Q9UKT9]: 3.68
- LHCEICGFCCTQKGNLLRHIKL [46L_47H_49E_50I_52G_53F_54C_55C_67L_, Q9UKT9]: 0.874
- FCCDQCGAQFTQKGNLLRHIKL [46F_47C_49D_50Q_52G_53A_54Q_55F_67L_, Q9UKT9]: -2.37
- FGCEICGAYFTQKGNLLRHIKL [46F_47G_49E_50I_52G_53A_54Y_55F_67L_, Q9UKT9]: 0.883
